Test: Binding affinity to GST-tagged Calcineurin (unknown origin) incubated for 1 hr by fluorescence polarization assay
Set-up: species or system Homo sapiens
Starred links: 1 amine or outer side, 2 acyl side, 3 side chain; linkers in the order of their positions; H or OH if unused. Non-standard residues stand in square brackets, D forms with d. Residues, ends and D or L forms follow the SMILES beside them. *: point of attachment. X5 = O=C(O)c1cc(NC(=S)*)ccc1-c1c2ccc(=O)cc-2oc2cc(O)ccc12; X3 = CC1(C)SC[C@@H](C(=O)[*:2])N1[*:1]; Cyclopentanecarbonyl = O=C(C1CCCC1)*; Tle = CC(C)(C)[C@H](N)C(=O)O; X4 = O=C(c1ccc(Br)c(Cl)c1)*
Assay Readout: Kd (nM)
Provide only the numeric value, understood in nM.

According to the records, this compound CC[C@H](C)[C@H](NC(=O)[C@@H](NC(=O)c1cccc(Cl)c1Cl)C(C)(C)C)C(=O)N[C@H](C(=O)N[C@H](C(=O)N[C@H](C(=O)N[C@@H](CCC(N)=O)C(=O)N[C@@H](Cc1c[nH]cn1)C(=O)N[C@H](CC(C)C)C(=O)N[C@@H](CO)C(=O)NCCC(=O)N[C@@H](CCCCNC(=S)Nc1ccc(-c2c3ccc(=O)cc-3oc3cc(O)ccc23)c(C(=O)O)c1)C(N)=O)[C@@H](C)O)[C@@H](C)CC)C(C)(C)C displays Kd of 9.1

# Kd of CC[C@H](C)[C@H](NC(=O)[C@@H](NC(=O)[C@@H](NC(=O)[C@@H](NC(=O)[C@@H]1CCCN1C(=O)[C@H](Cc1cnc[nH]1)NC(=O)[C@@H]1CCCN1C(=O)CN)C(C)(C)C)[C@@H](C)CC)C(C)(C)C)C(=O)N[C@H](C(=O)NCC(=O)N1[C@H](C(=O)N[C@@H](Cc2cnc[nH]2)C(=O)N[C@@H](CCC(=O)O)C(=O)N[C@@H](CCC(=O)O)C(=O)O)CSC1(C)C)[C@@H](C)O (H-GPHP[Tle]I[Tle]ITG[X3]HEE-OH) = 2.6

Entry CC[C@H](C)[C@H](NC(=O)[C@@H](NC(=O)c1ccc(Br)c(Cl)c1)C(C)(C)C)C(=O)N[C@H](C(=O)N[C@H](C(=O)N[C@H](C(=O)NCC(=O)N1CCC[C@H]1C(=O)N[C@@H](Cc1c[nH]cn1)C(=O)N[C@@H](CCC(=O)O)C(=O)N[C@@H](CCC(=O)O)C(=O)N[C@@H](Cc1ccc(O)cc1)C(=O)N[C@@H](CCCCNC(=S)Nc1ccc(-c2c3ccc(=O)cc-3oc3cc(O)ccc23)c(C(=O)O)c1)C(N)=O)[C@@H](C)O)[C@@H](C)CC)C(C)(C)C (X4-[Tle]I[Tle]ITGPHEEYK(X5)-NH2) ; Kd = 189

Just so you know, measured Kd for CC[C@H](C)[C@H](NC(=O)[C@@H](NC(=O)C1CCCC1)C(C)(C)C)C(=O)N[C@H](C(=O)N[C@H](C(=O)N[C@H](C(=O)NCC(=O)N1CCC[C@H]1C(=O)N[C@@H](Cc1c[nH]cn1)C(=O)N[C@@H](CCC(=O)O)C(=O)N[C@@H](CCC(=O)O)C(=O)N[C@@H](Cc1ccc(O)cc1)C(=O)N[C@@H](CCCCNC(=S)Nc1ccc(-c2c3ccc(=O)cc-3oc3cc(O)ccc23)c(C(=O)O)c1)C(N)=O)[C@@H](C)O)[C@@H](C)CC)C(C)(C)C (Cyclopentanecarbonyl-[Tle]I[Tle]ITGPHEEYK(X5)-NH2) came out at 357

Cited source for all entries: ChEMBL document CHEMBL4699579
